Attribution: patent US6387909B1

Biological target: recombinant α1a-adrenoceptor (Homo sapiens)
Sequence (P35348 1-466): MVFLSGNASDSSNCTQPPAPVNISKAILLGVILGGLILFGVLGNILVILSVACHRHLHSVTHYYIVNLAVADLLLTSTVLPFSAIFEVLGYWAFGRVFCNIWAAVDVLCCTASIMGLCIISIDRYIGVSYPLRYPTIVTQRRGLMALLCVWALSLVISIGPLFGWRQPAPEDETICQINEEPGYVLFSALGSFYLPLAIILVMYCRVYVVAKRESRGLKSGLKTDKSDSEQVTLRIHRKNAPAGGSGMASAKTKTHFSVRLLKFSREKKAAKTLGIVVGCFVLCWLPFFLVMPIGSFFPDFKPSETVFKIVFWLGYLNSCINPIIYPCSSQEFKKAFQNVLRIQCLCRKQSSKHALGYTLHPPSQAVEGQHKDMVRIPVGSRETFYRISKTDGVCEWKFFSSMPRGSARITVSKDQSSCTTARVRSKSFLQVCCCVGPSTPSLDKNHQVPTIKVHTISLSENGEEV
Assay: Radioligand binding ([3H]prazosin) to cloned α1a adrenoceptor
Conditions: read-out: Affinity (Ki) α1a
Response field label takes 1 when Ki is strictly below 0.2 nM and -1 in all other cases.

compound="O=C(NCCCN1CCN(c2ccccc2OCC(F)(F)F)CC1)c1csc2c(=O)cc(-c3ccccc3)oc12 [Example 5]" label=1
compound="COc1ccccc1N1CCN(CCCNC(=O)c2csc3c(=O)cc(-c4ccccc4)oc23)CC1 [Example 2]" label=1
compound="COc1ccccc1N1CCN(CCCNC(=O)c2csc3c(=O)cc(C(F)(F)F)oc23)CC1 [Example 4]" label=-1
compound="COc1ccc(OCC(F)(F)F)cc1N1CCN(CCCNC(=O)c2csc3c(=O)cc(-c4ccccc4)oc23)CC1 [Example 6]" label=-1
compound="COc1ccc(Cl)cc1N1CCN(CCCNC(=O)c2csc3c(=O)cc(-c4ccccc4)oc23)CC1 [Example 1]" label=-1

# evaluate next
Inquiry: Identify whether the compound O=C(NCCCN1CCN(c2ccc(F)cc2OCC(F)(F)F)CC1)c1csc2c(=O)cc(-c3ccccc3)oc12 [Example 7] records Ki below 0.2 nM.
Reply text: 1

====

As shown below, each of these compounds has a reported Ki value.
Target chain: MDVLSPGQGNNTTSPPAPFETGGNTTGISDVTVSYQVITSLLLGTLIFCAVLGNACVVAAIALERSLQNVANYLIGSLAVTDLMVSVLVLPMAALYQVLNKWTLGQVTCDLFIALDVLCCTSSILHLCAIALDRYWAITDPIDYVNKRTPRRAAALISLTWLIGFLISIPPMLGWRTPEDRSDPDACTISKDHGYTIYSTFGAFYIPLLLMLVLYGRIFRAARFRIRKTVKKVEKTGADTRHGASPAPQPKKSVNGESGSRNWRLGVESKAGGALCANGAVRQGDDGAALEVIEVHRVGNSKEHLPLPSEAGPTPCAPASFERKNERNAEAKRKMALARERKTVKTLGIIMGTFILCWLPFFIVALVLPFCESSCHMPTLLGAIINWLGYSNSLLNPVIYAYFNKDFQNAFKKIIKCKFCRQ
Respond with the bare value in µM.

compound="O=C(NCCCN1CCN(c2ccccc2OCC(F)(F)F)CC1)c1csc2c(=O)cc(-c3ccccc3)oc12 [Example 5]" meas_value=0.00759
compound="COc1ccc(OCC(F)(F)F)cc1N1CCN(CCCNC(=O)c2csc3c(=O)cc(-c4ccccc4)oc23)CC1 [Example 6]" meas_value=1.08
compound="COc1ccccc1N1CCN(CCCNC(=O)c2csc3c(=O)cc(C(F)(F)F)oc23)CC1 [Example 4]" meas_value=0.0262

Inquiry: Report Ki for COc1ccccc1N1CCN(CCCNC(=O)c2csc3c(=O)cc(-c4ccccc4)oc23)CC1 [Example 2] please.
Reply text: 0.00448
